FYI, the data here is from PubChem BioAssay (NCI).

tested on: HCT-15 colon; experiment: NCI tumour cell line growth inhibition, 48 h
measured-property: TGI

Here are 6 compounds together with their reported answers.
• Oc1[nH]c2ccccc2c1N=NC(=S)Nc1ccccc1Cl = > 100 µM
• C/C(=N/N=C(\[O-])c1ccncc1)C(F)(F)F.C/C(=N\N=C(/[O-])c1ccncc1)C(F)(F)F.[Ni+2] = > 1 µM
• O=C(O)c1cccc(C(=O)O)c1S(=O)Cc1ccccc1 (stereo unspecified) = > 100 µM
• NC(=O)C(=O)C1CCC2=C(Sc3ccccc3N2)C1=O (stereo unspecified) = > 100 µM
• Cc1ccc2nc(N/N=C/c3sccc3C)cc(C)c2c1 = > 100 µM
• Cn1cc(C2=C(c3cccc(OC[C@@H](O)CO)c3)C(=O)NC2=O)c2ccccc21 = > 25 µM

Read the next record carefully.
Data request: I am curious: what TGI value has been reported for CCOC(=O)C(C(=O)OCC)=C1NC2(c3ccccc3Nc3ccccc32)C(C#N)S1 (stereo unspecified) ?
Data returned: 19.6 µM

---

test system: LOX IMVI melanoma; assay: NCI tumour cell line growth inhibition, 48 h
measured-property: TGI (µM)
# value in µM; strip the unit string

Here are 3 molecules together with their reported answers.
• O=C(c1cccs1)N(C(=S)OCCOc1ccccc1)c1ccccc1 = 33.3
• Cc1cc(C)nc(SC2=C(Nc3cc(Cl)ccc3O)C(=O)N(Cc3ccccc3)C2=O)n1 = 89.4
• COc1ccc(-c2nc(/C=C3\SC(=NCc4ccccc4)NC3=O)c3ccccn23)cc1 = 2.72

Read the next record carefully.
Data request: I am curious: what TGI value has been reported for O=c1c2cc(S(=O)(=O)O)ccc2nc(COc2ccc(Oc3ccc(Cl)cc3Cl)cc2)n1-c1ccc(Oc2ccc(Cl)cc2)cc1Cl ?
Data returned: 30.2

---

Below, each of the molecules is paired with its reported TGI value.
tested on: PC-3 prostate; experiment: NCI tumour cell line growth inhibition, 48 h
# value in µM; strip the unit string

Here are 2 molecules together with their reported answers.
- CCCCCO/N=C\c1c2c(O)c3c(O)c(C)c4c(c3c1O)C(=O)C(C)(O/C=C\C(OC)C(C)C(OC(C)=O)C(C)C(O)C(C)C(O)C(C)/C=C\C=C(\C)C(=O)N2)O4 (stereo not given): 4.5
- CC1(C)CC[C@]2(C)CC[C@]3(C)C(=CC[C@@H]4[C@@]5(C)CCC(=O)C(C)(C)[C@@H]5[C@H](O)C[C@]43C)[C@@H]2C1: 30.9

Data request: Field: TGI (PC-3 prostate). Entry: Cc1cc(C#Cc2ccc(C(C)(C)C)cc2)ccc1-n1c(/C=C/c2ccc(O)cc2O)nc2ccccc2c1=O
Data returned: 16.2

Data request: Field: TGI (PC-3 prostate). Entry: C#CCNC(=O)[C@H](CC)[C@H]1CC[C@H](C)[C@H]([C@@H](C)[C@H](O)[C@H](C)C(=O)[C@H](CC)C2O[C@]3(C=CC(=O)[C@]4(CC[C@@](C)([C@H]5CC[C@](O)(CC)[C@H](C)O5)O4)O3)[C@H](C)C[C@@H]2C)O1 (stereo not given in full)
Data returned: 8.78

---

test system: MCF7 breast; experiment: NCI tumour cell line growth inhibition, 48 h; in the data active = GI50 below about 0.43 µM; inactive = the rest
# valid calls are TRUE (active), FALSE (inactive); nothing else

* Cc1cc(C#Cc2ccc(C(C)(C)C)cc2)ccc1-n1c(/C=C/c2ccc(O)cc2O)nc2ccccc2c1=O | FALSE
* CC1OC(OC2C(O)CC(OC3C(O)CC(OC4CCC5(C)C(CCC6C5CC(O)C5(C)C(C7=CC(=O)OC7)CCC65O)C4)OC3C)OC2C)CC(O)C1O (centres undefined) | TRUE
* C(=N/N(Cc1ccccc1)Cc1ccccc1)/c1ccccc1 | FALSE
* COC(=O)[C@H]1CCCN1C(=O)[C@H]1CCCN1C(=O)[C@@H](Cc1c[nH]c2ccccc12)NC(=S)Nc1cc(C(F)(F)F)cc(C(F)(F)F)c1 | FALSE
* NS(=O)(=O)c1ccc(-c2cc3ccncc3cc2OCc2ccccc2)cc1 | FALSE
* Cc1cccc2c3c(sc12)C(c1ccc(Cl)cc1)C(C#N)=C(N)O3 (centres undefined) | TRUE
* CC(=O)NCc1cccc(C#Cc2cncnc2Nc2ccc(OCc3cccc(F)c3)c(Cl)c2)c1 | FALSE
* c1ccc2c(c1)Nc1ccncc1S2 | FALSE

As a next step, examine the compound that follows.
Data request: Entry CC(C)(O)CNc1nc(Nc2ccnc(C(F)(F)F)c2)nc(-c2cccc(C(F)(F)F)n2)n1 : call = ?
Data returned: FALSE

---

system: MDA-N; assay: NCI tumour cell line growth inhibition, 48 h
Below, each of the compounds is paired with its reported TGI value.

Here are 10 compounds together with their reported answers.
- CCOC(=O)NNC(=O)NCc1cccc(CNC(=O)NNC(=O)OCC)c1: > 100 µM
- CC1=NC(=Cc2ccccc2O)C(=O)N1n1c(-c2ccccc2)nc2ccccc2c1=O: > 100 µM
- Nc1nc(O)c2ncn([C@H]3CC[C@@H](CO)O3)c2n1: > 100 µM
- CCOC(=O)CNC(=O)C(CSC(=O)N(O)c1ccc(Cl)cc1)NC(=O)CCC(N)C(=O)OCC (configuration not stated): > 50 µM
- O=c1c2cc(S(=O)(=O)O)ccc2nc(COc2ccc(Oc3ccc(Cl)cc3Cl)cc2)n1-c1ccc(Oc2ccc(Cl)cc2)cc1Cl: 59.2 µM
- CC(=O)NC1C(OCc2ccccc2)OC(CO)C(O)C1OC(C)C(=O)NC(C)C(=O)NC(CCC(=O)NCCCCNc1c2ccccc2nc2cccc([N+](=O)[O-])c12)C(N)=O (configuration not stated): 0.0532 µM
- COc1ccc(N2C(=O)/C(=C\c3cc(OC)c(OC)c(OC)c3)SC2c2ccccc2)cc1 (configuration not stated): > 100 µM
- CCC(=O)C(CCN1CCC2(CCCc3ccccc32)CC1)(c1ccccc1)c1ccccc1: 10.9 µM
- O=C(/C=C/c1ccccc1)Oc1ccc(C(=O)/C=C/c2ccc(Cl)cc2)cc1: > 100 µM
- Cc1ccc(-c2nc(N/N=C/C=C/c3ccccc3)c3ccccc3n2)cc1: > 100 µM

Data request: Field: TGI (MDA-N). Entry: CC1(c2nc3ccccc3[nH]2)CCC(C(=O)O)C(C)(C)O1 (configuration not stated)
Data returned: > 100 µM

Data request: Field: TGI (MDA-N). Entry: COc1ccc(OC)c(CNc2ccc(C(=O)O)cc2)c1
Data returned: > 100 µM

---

system: SNB-75 CNS; assay: NCI tumour cell line growth inhibition, 48 h
Mark TRUE for reported TGI of 10 µM or greater; mark FALSE for anything smaller.

* O=[N+]([O-])c1ccc(C(=S)Nc2ccccc2)o1 | TRUE
* O=C(O)Cc1cccnc1 | TRUE
* COC(=O)C(CCSC)NC(=O)CNC(=O)CSc1nnc(COc2ccc(Cl)cc2)n1-c1ccccc1 (centres undefined) | TRUE
* NS(=O)(=O)c1nnc(NS(=O)(=O)C(F)(F)F)s1 | TRUE
* Nc1nc(O)c2ncn([C@H]3CC[C@@H](CO)O3)c2n1 | TRUE

Data request: Reported TGI at or above 10 µM? Oc1[nH]c2ccccc2c1N=NC(=S)Nc1ccccc1Cl
Data returned: TRUE

Data request: Reported TGI at or above 10 µM? C#CCNC(=O)[C@H](CC)[C@H]1CC[C@H](C)[C@H]([C@@H](C)[C@H](O)[C@H](C)C(=O)[C@H](CC)C2O[C@]3(C=CC(=O)[C@]4(CC[C@@](C)([C@H]5CC[C@](O)(CC)[C@H](C)O5)O4)O3)[C@H](C)C[C@@H]2C)O1 (some centres undefined)
Data returned: FALSE

Data request: Reported TGI at or above 10 µM? COc1ccc(-c2nc(/C=C3\SC(=NCc4ccccc4)NC3=O)c3ccccn23)cc1
Data returned: FALSE

---

test system: UACC-257 melanoma; experiment: NCI tumour cell line growth inhibition, 48 h
Below, each of the molecules is paired with its reported TGI value.

- COC(=O)/C=C(\CC(=O)OC)n1nnnc1[C@@H]1C[C@H](COC(c2ccccc2)(c2ccccc2)c2ccccc2)[C@H]2OC(C)(C)O[C@H]21: > 100 µM
- COc1ccc(CCC2c3cc(OC)c(OC)cc3CCN2C)cc1OC (stereo unspecified): > 100 µM
- N#CC(C#N)c1ccc(C(=O)N2CCC[C@H]2CO)cc1: > 100 µM
- NC1CC(=O)c2c1sc(Cl)c2Cl (stereo unspecified): > 100 µM
- O=[N+]([O-])/C(C(Cl)=C(Cl)Cl)=C(/Cl)SCc1ccccc1: 7.03 µM
- Cc1cc(N(CCC#N)CCC#N)ccc1/C(N=Nc1cccc(Cl)c1)=N/NC(=O)c1cc(Cl)ccc1O: 31.2 µM

Read the next record carefully.
Data request: I am curious: what TGI value has been reported for NC(=O)c1csc(C2OC(COP(=O)(O)CP(=O)(O)OCC3OC(n4cnc5c(N)ncnc54)C(O)C3O)C(O)C2O)n1 (stereo unspecified) ?
Data returned: > 100 µM
